// z-score lookup, one value per entry
- test-description: splicing luciferase reporter signal modulators, primary screen, spliceosome inhibition project, cell-based, HEK293, splice +/- reporter (AID 1101);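 note: HEK293 cells carrying a splicing-competent luciferase reporter gene; test concentration not given here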
- conditions: luminescence, 24 h, higher = more signal, called active from +8 up or from −8 down
Hey, just send me the number, nothing else.

Request: Look up z-score for this compound: CCCCCN1CC=CC23O[C@@H]4C=CCCOC(=O)C4[C@H]2C(=O)N(CCCCCO)[C@@H]3C1=O (some centres not stated)
Result: -0.978

Request: Reported z-score, compound COC(=O)C(CC#Cc1ccc2c(c1)[C@]1(C(=O)N2)[C@H](c2ccc(OCCO)cc2)N2[C@H](c3ccccc3)[C@H](c3ccccc3)OC(=O)[C@H]2[C@@H]1C(=O)Nc1nc2ccccc2s1)C(=O)OC : ____
Result: -0.0218

Request: What measured z-score goes with Cc1ccc(S[C@]2(C(=O)O)CC(=O)N(C(C)C)[C@@H]2c2ccc(CO)cc2I)cc1 ?
Result: -2.55

Request: Reported z-score, compound COCCOC(=O)N1C(=O)[C@@]2(c3cc(C#CCC(C(=O)OC)C(=O)OC)ccc31)[C@H](C(=O)Nc1nc3ccccc3s1)[C@H]1C(=O)O[C@H](c3ccccc3)[C@H](c3ccccc3)N1[C@@H]2c1ccccc1OCCO : ____
Result: 0.952

Request: Entry O=C(NC1CC1)[C@@H]1c2ccccc2C(=O)N(Cc2ccccc2Cl)[C@H]1c1ccc(CO)cc1 has what z-score?
Result: -0.544

Request: Requested read-out: z-score. Entry: C=CC(=C)[C@H]1Oc2ccccc2S(=O)(=O)N2CCC[C@@H]12
Result: -0.629

Request: // returns reported z-score for input [N-]=[N+]=NCc1ccccc1C[C@]1(C(=O)N2CCCCC2)N=C(c2ccc(OCCCO)cc2)O[C@H]1c1ccccc1N=[N+]=[N-]
Result: -1.01
